Attribution: PubChem BioAssay

Experiment: antimalarial activity against Dd2 strain (AID 2302)
Details: P. falciparum Dd2 in RBCs, LDH growth readout, 72 h; at 2 µM; active compounds read high
Respond with criterion met for growth inhibition values of 50% and above, criterion not met for values below.

Example entries begin here.
Ask: Hello, I need to know if N#Cc1ccc2c(c1)CN(C1CCC(NC(=O)c3cc(-c4ccc(Cl)cc4)cs3)CC1)CCC2 (stereo unspecified) has measured growth inhibition not below 50%. Thanks!
Result: criterion met

Ask: Is growth inhibition at least 50%? Consider Cc1cc(N[C@@H](Cc2ccccc2)C(=O)NCCOc2ccccc2)nc(NCCOc2ccccc2)n1
Result: criterion not met

Ask: Is reported growth inhibition greater than or equal to 50% here: Clc1ccc2c(NN=Cc3ccccc3)ccnc2c1
Result: criterion met

Ask: Form field: growth inhibition at least 50%? Entry: CCCc1ccc(S(=O)(=O)Nc2ccc3c(c2)CCC3)cc1
Result: criterion not met

***
Ask: Check if growth inhibition >= 50% (inclusive). Item: O=C(Nc1n[nH]c2nc(-c3ccco3)c(Br)cc12)c1ccc(CN2CCCC2)cc1
Result: criterion met

Ask: Item NC1CCCN(Cc2cccc(-c3ccc(-c4nc5ccc(F)cc5[nH]4)cc3)c2)C1 (stereo unspecified) with growth inhibition of 50% or above?
Result: criterion met

Ask: Please check the record CN1CCN(Cc2cccc(-c3ccc4c(Nc5ccc(Oc6cccnc6)cc5)ccnc4c3)c2)CC1 and state if its growth inhibition is at or above 50%.
Result: criterion met

Ask: Hi team, for COc1ccc2nccc([C@@H](O)CN3CCC(NC(=O)C(=Cc4ccc(C#N)cc4)c4ccc(-c5ccccc5)cc4)CC3)c2c1 , is the recorded growth inhibition at or above 50%?
Result: criterion met

Ask: Reported growth inhibition reaches at least 50% for Cc1cc(C(=O)CN2C(=O)NC3(CCCc4ccccc43)C2=O)c(C)n1Cc1ccco1 (stereo unspecified) ?
Result: criterion not met

Ask: In plain terms: is recorded growth inhibition at least 50% for CC(C)c1ccc(CN2CCC(NC(=O)c3ccc(-c4ccccc4F)s3)CC2)cc1 ?
Result: criterion not met

Ask: Is the recorded value of growth inhibition equal to or greater than 50% for this compound? COc1cccc2cc(C(=O)N[C@@H](CC(C)C)C(=O)Nc3cc(F)ccc3Br)oc12
Result: criterion not met

====

Test: antimalarial activity against Dd2 strain (AID 2302)
Conditions: P. falciparum Dd2 in RBCs, LDH growth readout, 72 h; at 2 µM; active compounds read high
Quick rule for you: growth inhibition at 40% or higher means satisfied, lower means not satisfied.

Answered cases to consult:
Ask: Hi, just wondering whether COc1ccc2nccc(N3CCN(CCNCc4ccc5c(n4)NC(=O)CO5)CC3)c2c1 shows growth inhibition of 40% or higher.
Result: not satisfied

Ask: Does growth inhibition meet or surpass 40% for CS(=O)(=O)c1ccc2nc(-c3cc(-c4ccc(OCCN5CCOCC5)cc4)cnc3N)[nH]c2c1 ?
Result: satisfied

Ask: Hi team, for C(=NNc1cc(-c2ccccc2)nc2ccccc12)c1cccnc1 , is the recorded growth inhibition at or above 40%?
Result: not satisfied

Ask: Given the entry CC(=O)Nc1ccc(C(=O)Nc2cccc(-c3ccc(-c4nc5ccccc5[nH]4)s3)c2)cn1 , answer whether its growth inhibition meets or surpasses 40%.
Result: satisfied

Ask: Does growth inhibition meet or surpass 40% for COc1ccc(O)c(C(=O)c2cc(C(=O)NC3CCCCC3)c(=O)n(C3CCCCC3)c2)c1 ?
Result: satisfied

Others:
Ask: Can O=S(=O)(c1cccc(C(F)(F)F)c1)N1CCC(CO)(Cc2cccc(C(F)(F)F)c2)CC1 be said to have growth inhibition at or above 40%?
Result: satisfied

Ask: Test whether the compound O=C(Nc1ccc(Cl)c(Cl)c1)Nc1cc(C(F)(F)F)ccc1Cl records growth inhibition of 40% or higher.
Result: satisfied

Ask: Please indicate if the recorded growth inhibition for CCOc1c(CNCCCNc2nc3ccccc3[nH]2)cc(I)cc1OC meets or exceeds 40%.
Result: not satisfied

Ask: growth inhibition >= 40% for Cc1[nH]c(C)c(-c2ccc(CCc3ccc(F)cc3F)cc2)c(=O)c1Cl ?
Result: satisfied

Ask: Evaluate Oc1c(C(Nc2nc3ccccc3s2)c2ccc(OC(F)F)cc2)ccc2cccnc12 (centres undefined) : growth inhibition at minimum 40%?
Result: satisfied

Ask: Exam item: decide whether the reported growth inhibition for COc1ccc2nccc([C@@H](O)CN3CCC(NCc4cc5c(cc4F)SCC(=O)N5)CC3)c2n1 is at least 40%.
Result: not satisfied

Ask: Assess whether reported growth inhibition for CCN(CC)CCN(Cc1ccc(-c2ccc(C(F)(F)F)cc2)cc1)C(=O)Cn1c(CCc2ccc(F)c(F)c2F)nc(=O)c2cccnc21 sits at 40% or higher.
Result: not satisfied

Ask: Is reported growth inhibition greater than or equal to 40% here: O=C(Nc1cccc(CN2CCCN(Cc3cccnc3)CC2)c1)c1ccc(Cl)c(Cl)c1
Result: not satisfied
